ASSAY SYSTEM: DJA2 (Homo sapiens, UniProt O60884)
Construct: made in house
Sequence (O60884 whole entry): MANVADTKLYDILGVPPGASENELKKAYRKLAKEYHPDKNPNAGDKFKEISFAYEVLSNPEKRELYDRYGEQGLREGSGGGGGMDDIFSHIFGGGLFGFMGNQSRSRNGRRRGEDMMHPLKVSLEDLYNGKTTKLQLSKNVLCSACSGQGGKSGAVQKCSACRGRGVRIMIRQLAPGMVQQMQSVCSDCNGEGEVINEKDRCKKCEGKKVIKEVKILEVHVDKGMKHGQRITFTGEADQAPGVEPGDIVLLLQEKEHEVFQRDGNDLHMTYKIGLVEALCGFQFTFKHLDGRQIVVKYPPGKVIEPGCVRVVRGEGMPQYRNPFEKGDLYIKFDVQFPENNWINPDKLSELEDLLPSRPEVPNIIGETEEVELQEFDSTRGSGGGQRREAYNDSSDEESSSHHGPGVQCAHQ
PROTOCOL: ELISA binding of DJA2 to immobilized biotinylated CFTR peptides
CONDITIONS USED: immobilized peptide (biotin-GSGS-15-mer); DJA2 titrated in buffer H pH 7.5, no nucleotide, 45 min, room temperature; n = 3; read-out: Kd from binding curves, DJA2
Ends that are not written are not given here.
MEASURED ATTRIBUTE: Kd (nM)
Numbers only, in nM.

Requested field: Kd. Item: FLYLSTLRWFQMRIE [Peptide 1097-L]
75

----------
ASSAY SYSTEM: HSC70 (Homo sapiens)
Construct: made in house
Sequence (P11142 whole entry, the tested form may be a part): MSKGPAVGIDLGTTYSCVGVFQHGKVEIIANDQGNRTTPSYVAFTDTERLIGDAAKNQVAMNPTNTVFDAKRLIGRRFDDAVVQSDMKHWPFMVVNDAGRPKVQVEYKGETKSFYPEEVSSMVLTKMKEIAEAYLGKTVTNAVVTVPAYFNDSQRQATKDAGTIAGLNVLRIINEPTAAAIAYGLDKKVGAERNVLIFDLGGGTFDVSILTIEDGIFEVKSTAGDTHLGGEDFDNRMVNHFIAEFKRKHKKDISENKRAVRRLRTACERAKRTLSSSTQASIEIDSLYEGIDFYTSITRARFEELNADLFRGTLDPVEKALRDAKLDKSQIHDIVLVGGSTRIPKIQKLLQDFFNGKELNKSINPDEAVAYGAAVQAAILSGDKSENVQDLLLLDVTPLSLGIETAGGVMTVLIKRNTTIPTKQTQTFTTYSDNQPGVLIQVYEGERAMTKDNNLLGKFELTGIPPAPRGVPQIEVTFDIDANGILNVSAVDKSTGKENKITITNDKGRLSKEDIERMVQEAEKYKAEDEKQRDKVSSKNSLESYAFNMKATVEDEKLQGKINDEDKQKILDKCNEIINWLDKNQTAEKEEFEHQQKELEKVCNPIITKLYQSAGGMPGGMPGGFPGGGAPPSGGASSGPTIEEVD
PROTOCOL: Competition ELISA: soluble peptide vs HSC70 binding to immobilized 1097-L
CONDITIONS USED: 1 μM HSC70, soluble peptide up to 100 μM
Ends that are not written are not given here.
MEASURED ATTRIBUTE: competition of HSC70 binding to immobilized 1097-L (in words)

Previously resolved entries follow.
| SUBSTANCE | RESULT |
| --- | --- |
| TSLLMVIMG [Peptide 469-S] | competed HSC70 well |
| DKILILHEG [Peptide 618-S] | competed HSC70 well |
| SKLFFSWTR [Peptide 17-S] | competed HSC70 well |
| 493-L: NBD1 15-mer 486-500 (GRISFCSQFSWIMPG; UniProt P13569 486-500, looked up, fragment) [Peptide 493-L] | competed poorly |

Kindly consider the entry below.
Provide the documented competition of HSC70 binding to immobilized 1097-L (in words) with HSC70 (Homo sapiens) as the system for 488-L: NBD1 15-mer 481-495 (KIKHSGRISFCSQFS; UniProt P13569 481-495, looked up, fragment) [Peptide 488-L]
competed poorly
